# test.system: SIK2 (Homo sapiens)
# Construct: purchased ThermoFisher Scientific PV4792
# protocol.summary: biochemical
# assay.conditions: 33P radioactive SIK kinase assay, AMARA peptide, 10 μM ATP
pIC50: −log10 of the molar value.
measure.name: pIC50

COc1cc(-n2cnc3cc(-c4cnn(C)c4)ccc32)cc(OC)c1C(=O)NCCCO [compound 63] ... 7.00 to 8.00
COCCCNC(=O)c1c(OC)cc(-n2cnc3cc(-c4cnn(C)c4)ccc32)cc1OC [compound 60] ... 7.00 to 8.00
COc1cc(-n2cnc3cc(-c4cnn(C)c4)ccc32)cc(OC)c1C(=O)Nc1ccnn1C [compound 73] ... 6.30 to 7.00

So what does the record say about pIC50 for COc1cc(-n2cnc3cc(-c4cnn(C)c4)ccc32)cc(OC)c1C(=O)N[C@@H](C)C(F)(F)F [compound 80] ?
8.00 to 11.00

---

# test.system: SIK2 (Homo sapiens, UniProt Q9H0K1)
# Construct: purchased ThermoFisher Scientific PV4792
# Sequence (Q9H0K1 whole entry): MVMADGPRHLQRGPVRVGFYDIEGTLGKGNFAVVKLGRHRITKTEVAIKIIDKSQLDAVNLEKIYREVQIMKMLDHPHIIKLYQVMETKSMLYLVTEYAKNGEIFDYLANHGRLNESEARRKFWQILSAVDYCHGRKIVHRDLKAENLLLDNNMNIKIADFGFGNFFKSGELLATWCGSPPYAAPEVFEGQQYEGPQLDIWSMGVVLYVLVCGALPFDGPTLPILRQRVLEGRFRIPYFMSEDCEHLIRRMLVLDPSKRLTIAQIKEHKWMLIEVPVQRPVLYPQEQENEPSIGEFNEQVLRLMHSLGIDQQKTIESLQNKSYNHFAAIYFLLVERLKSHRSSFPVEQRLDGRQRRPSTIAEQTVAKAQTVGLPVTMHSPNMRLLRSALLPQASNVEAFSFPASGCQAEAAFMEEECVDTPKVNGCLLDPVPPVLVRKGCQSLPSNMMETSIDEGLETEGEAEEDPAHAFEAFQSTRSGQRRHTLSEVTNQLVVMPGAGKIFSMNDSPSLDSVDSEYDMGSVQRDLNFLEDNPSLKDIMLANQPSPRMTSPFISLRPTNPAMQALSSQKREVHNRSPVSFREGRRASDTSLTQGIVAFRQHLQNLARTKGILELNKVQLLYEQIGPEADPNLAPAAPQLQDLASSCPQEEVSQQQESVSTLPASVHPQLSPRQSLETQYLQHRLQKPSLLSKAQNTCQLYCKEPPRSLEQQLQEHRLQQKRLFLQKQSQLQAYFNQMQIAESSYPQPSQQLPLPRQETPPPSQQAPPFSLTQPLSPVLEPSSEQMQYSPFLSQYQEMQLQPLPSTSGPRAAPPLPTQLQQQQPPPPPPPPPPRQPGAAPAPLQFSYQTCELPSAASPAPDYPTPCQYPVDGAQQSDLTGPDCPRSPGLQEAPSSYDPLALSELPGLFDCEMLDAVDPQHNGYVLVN
# protocol.summary: biochemical
# assay.conditions: ADP-Glo SIK kinase assay
As shown below, each of these compounds has a reported IC50 value.

Some solved cases for reference:
COc1cc(-c2cnc3cc(-c4ccc(C(F)(F)F)nn4)ccn23)cc(OC(F)F)c1C(=O)NC1CC1 ... 0.01 to 10 nM
CCN(CC)CCOC(=O)C(C)(C)n1cc(-c2ccn3c(-c4cc(OC)c(C(=O)NCC(F)(F)F)c(OC)c4)cnc3c2)cn1 ... 0.01 to 10 nM
COCCOc1cc(-c2cnc3cc(-c4cnn(C)c4)ccn23)cc(OC)c1C(=O)NC1CC1 ... 0.01 to 10 nM

So what does the record say about IC50 for COc1cc(-c2cnc3cc(-c4cnn(C)c4)ccn23)cc(NC(C)C)c1C(=O)NC1CC1 ?
0.01 to 10 nM

Then what about the compound CCOC(=O)C(C(C)C)n1cc(-c2ccn3c(-c4cc(OC)c(C(=O)NCC(F)(F)F)c(OC)c4)cnc3c2)cn1 (stereo not drawn) ?
0.01 to 10 nM

Then what about the compound COc1cc(-c2cnc3cc(-c4cn(C)cn4)ccn23)cc(OC)c1C(=O)N[C@@H](C)C(F)(F)F ?
10 to 100 nM

Then what about the compound COc1cc(-c2cnc3cc(-c4cnn(C)c4)c(OCC(=O)O)cn23)cc(OC(F)F)c1C(=O)NC1CC1 ?
0.01 to 10 nM

Then what about the compound CCOC(=O)C(C)Oc1cn2c(-c3cc(OC)c(C(=O)NC4CC4)c(OC(F)F)c3)cnc2cc1-c1cnn(C)c1 (stereo not drawn) ?
10 to 100 nM

Then what about the compound Cn1cc(-c2ccn3c(-c4cc(F)c(C(=O)NCC(F)(F)F)c(F)c4)cnc3c2)cn1 ?
0.01 to 10 nM

---

# test.system: SIK3 (Homo sapiens, UniProt Q9Y2K2)
# Construct: purchased SignalChem S12-11G-100
# Sequence (Q9Y2K2 whole entry): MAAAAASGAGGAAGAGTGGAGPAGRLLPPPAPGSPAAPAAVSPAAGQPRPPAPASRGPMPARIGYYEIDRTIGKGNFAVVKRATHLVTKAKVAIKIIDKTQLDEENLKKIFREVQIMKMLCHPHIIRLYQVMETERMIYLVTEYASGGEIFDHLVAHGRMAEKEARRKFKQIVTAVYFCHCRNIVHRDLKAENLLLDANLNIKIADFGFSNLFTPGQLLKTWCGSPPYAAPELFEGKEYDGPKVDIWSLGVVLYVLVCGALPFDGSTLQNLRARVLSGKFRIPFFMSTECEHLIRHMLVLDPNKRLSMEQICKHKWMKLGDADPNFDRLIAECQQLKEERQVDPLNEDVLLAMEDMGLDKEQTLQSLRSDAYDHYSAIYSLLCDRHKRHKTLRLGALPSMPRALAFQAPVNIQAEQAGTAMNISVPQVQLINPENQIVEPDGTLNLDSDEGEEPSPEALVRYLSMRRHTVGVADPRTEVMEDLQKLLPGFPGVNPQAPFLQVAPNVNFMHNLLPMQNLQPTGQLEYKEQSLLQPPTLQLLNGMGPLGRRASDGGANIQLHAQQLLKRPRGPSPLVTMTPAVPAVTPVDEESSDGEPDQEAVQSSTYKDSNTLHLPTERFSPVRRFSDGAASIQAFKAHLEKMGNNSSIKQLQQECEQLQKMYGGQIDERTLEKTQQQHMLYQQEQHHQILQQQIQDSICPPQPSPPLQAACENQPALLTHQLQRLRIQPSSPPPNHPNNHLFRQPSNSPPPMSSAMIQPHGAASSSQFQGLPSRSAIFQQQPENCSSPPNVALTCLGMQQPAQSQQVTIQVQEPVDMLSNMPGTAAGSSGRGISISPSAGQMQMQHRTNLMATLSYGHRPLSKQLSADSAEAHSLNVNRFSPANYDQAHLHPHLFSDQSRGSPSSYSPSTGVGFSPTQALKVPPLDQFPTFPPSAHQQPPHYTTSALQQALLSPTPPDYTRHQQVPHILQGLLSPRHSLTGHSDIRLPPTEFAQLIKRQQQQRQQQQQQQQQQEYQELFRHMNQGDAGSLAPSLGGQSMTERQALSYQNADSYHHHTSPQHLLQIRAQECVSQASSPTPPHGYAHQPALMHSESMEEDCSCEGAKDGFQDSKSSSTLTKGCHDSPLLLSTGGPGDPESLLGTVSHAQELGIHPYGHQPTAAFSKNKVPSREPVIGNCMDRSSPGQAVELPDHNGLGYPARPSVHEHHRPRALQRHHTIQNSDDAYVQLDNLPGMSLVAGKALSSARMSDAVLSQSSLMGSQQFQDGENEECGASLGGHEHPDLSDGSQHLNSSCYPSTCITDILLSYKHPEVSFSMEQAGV
# protocol.summary: biochemical
As shown below, each of these compounds has a reported IC50 value.

Some solved cases for reference:
COc1cc(-n2cnc3cc(-c4ccc(N)nc4)ccc32)cc(OC)c1C(=O)NCC(F)(F)F ... 10 to 100 nM
COc1cc(-n2cnc3cc(-c4cnn(C)c4)ccc32)cc(OC)c1C(=O)N1CC(O)(C(F)(F)F)C1 ... 0.01 to 10 nM
COc1cc(-c2cnc3cc(-c4cnn(C)c4)cnn23)cc(OC)c1C(=O)NC1CC1 ... 0.01 to 10 nM
COc1cc(-c2cnn3cc(-c4cnn(C)c4)cnc23)cc(OC)c1C(=O)NCC(F)(F)F ... 10 to 100 nM

So what does the record say about IC50 for COc1cc(-c2cnc3cc(-c4cnn(CC(=O)OCCF)c4)ccn23)cc(OC)c1C(=O)NCC(F)(F)F ?
0.01 to 10 nM

Then what about the compound COc1cc(-n2cnc3cc(-c4cn(C)nn4)ccc32)cc(OC)c1C(=O)NCC(F)(F)F ?
10 to 100 nM

Then what about the compound COC(=O)Cn1cc(-c2ccn3c(-c4cc(OC)c(C(=O)NCC(F)(F)F)c(OC)c4)cnc3c2)cn1 ?
0.01 to 10 nM

Then what about the compound CCN1Cc2cc(-n3cnc4cc(-c5cnn(C)c5)ccc43)cc(F)c2C1=O ?
100 to 500 nM
